Study Target: JAK1 (Homo sapiens, UniProt P23458)
Construct: 5 μl of catalytic domain recombinant Kinase enzyme+Tyr peptide substrate (Invitrogen, CA)
Sequence (P23458 875-1153 limits assumed): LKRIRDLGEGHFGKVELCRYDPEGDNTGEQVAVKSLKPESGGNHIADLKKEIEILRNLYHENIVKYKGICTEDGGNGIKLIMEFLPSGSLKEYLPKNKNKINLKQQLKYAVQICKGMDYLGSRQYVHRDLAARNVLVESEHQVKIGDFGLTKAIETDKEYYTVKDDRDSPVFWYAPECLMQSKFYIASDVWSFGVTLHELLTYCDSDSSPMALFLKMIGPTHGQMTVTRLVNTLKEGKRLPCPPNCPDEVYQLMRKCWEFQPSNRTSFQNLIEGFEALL
Assay Details: Z'-LYTE kinase assay JAK1
Listed here: items and their measured IC50.

NC(=O)c1cnc(Nc2ccc(N3CCCCC3)cc2)cc1N[C@H](CO)c1ccccc1 > 1 µM

Any idea what IC50 was measured for COc1ccc(Nc2cc(NCc3ccccc3)c(C(N)=O)cn2)cc1C ? > 1 µM

---

Study Target: JAK1 (Homo sapiens, UniProt P23458)
Construct: 5 μl of catalytic domain recombinant Kinase enzyme+Tyr peptide substrate (Invitrogen, CA)
Assay Details: Z'-LYTE kinase assay JAK1
pIC50: −log10 of the molar value.
Observable: pIC50

Molecule	pIC50
CS(=O)(=O)Cc1ccc(Nc2cc(NCc3ccccc3)c(C(N)=O)cn2)cc1 [Example 347]	6.00 to 7.00
Cc1cc(Nc2cc(NCc3cccc(F)c3)c(C(N)=O)cn2)ccc1N1CCCC1=O [Example 61]	6.00 to 7.00
CC(=O)N1CCN(c2ccc(Nc3cc(N[C@H]4CC[C@@H](O)CC4)c(C(N)=O)cn3)cc2)CC1 [Example 123]	6.00 to 7.00
CN(C)C(=O)c1ccc(Nc2cc(NCc3cccc4cc[nH]c34)c(C(N)=O)cn2)cc1 [Example 288]	< 6.00

Param item = NC(=O)c1cnc(Nc2cccc(OCCN3CCOCC3)c2)cc1N[C@H](CO)c1ccccc1 [Example 230] ; retrieve measured pIC50. < 6.00

I would be grateful if you could share the reported pIC50 for CCC(=O)N1CCC(c2ccc(Nc3cc(NC4CCOCC4)c(C(N)=O)cn3)cc2)CC1 [Example 146] . < 6.00

Dear colleague, I am looking for the recorded pIC50 of the following molecule: NC(=O)c1cnc(Nc2ccc(N3CCCCC3)cc2)cc1NCc1ccccc1F [Example 74] < 6.00

Would you mind telling me what pIC50 value was observed for CN(C)S(=O)(=O)NCc1ccc(Nc2cc(NCc3cccc4ccsc34)c(C(N)=O)cn2)cc1 [Example 355] ? 6.00 to 7.00

Sample COCC(=O)N1CC(c2ccc(Nc3cc(NCc4cccc(F)n4)c(C(N)=O)cn3)cc2)C1 [Example 493] — what was its pIC50? 6.00 to 7.00

Consider the molecule shown here: CC(=O)N1CCN(c2ccc(Nc3cc(NCc4cccc(F)c4F)c(C(N)=O)cn3)cc2)CC1 [Example 256] What is its recorded pIC50? 6.00 to 7.00

Quick one: pIC50 for CCC(=O)N1CCC(c2ccc(Nc3cc(NCc4ncccn4)c(C(N)=O)cn3)cc2)CC1 [Example 180] ? < 6.00

Query: pIC50; subject: CS(=O)(=O)N1CCN(c2ccc(Nc3cc(NC4(c5ccccc5)CC4)c(C(N)=O)cn3)cc2)CC1 [Example 364] < 6.00

May I ask what pIC50 has been recorded for Cc1cc(Nc2cc(NCc3cccc4[nH]ccc34)c(C(N)=O)cn2)ccc1C(=O)N(C)C [Example 295] ? 8.00 to 9.00

Find the recorded pIC50 belonging to NC(=O)c1cnc(Nc2ccc(S(=O)(=O)N3CCC3)cc2)nc1NCc1ccccc1 [Example 434] and report it. < 6.00

Please report the recorded pIC50 for N#Cc1ccc(Nc2cc(NCc3ccccc3)c(C(N)=O)cn2)cc1C#N [Example 393] . < 6.00

Item CC(=O)N1CC(c2ccc(Nc3cc(NCc4cncc(F)c4)c(C(N)=O)cn3)cc2)C1 [Example 334] has what recorded pIC50? 6.00 to 7.00

---

Examples of molecules with documented IC50 follow.
Study Target: JAK3 (Homo sapiens, UniProt P52333)
Construct: 5 μl of catalytic domain recombinant Kinase enzyme+Tyr peptide substrate (Invitrogen, CA)
Sequence (P52333 822-1111 limits assumed): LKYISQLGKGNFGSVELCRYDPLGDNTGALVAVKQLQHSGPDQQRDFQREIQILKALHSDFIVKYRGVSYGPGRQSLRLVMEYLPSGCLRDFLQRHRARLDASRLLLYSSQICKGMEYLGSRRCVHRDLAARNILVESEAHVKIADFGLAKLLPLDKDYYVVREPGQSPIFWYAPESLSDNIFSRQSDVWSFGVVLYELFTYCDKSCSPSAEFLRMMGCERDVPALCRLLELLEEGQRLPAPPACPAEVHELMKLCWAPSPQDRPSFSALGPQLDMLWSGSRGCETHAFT
Assay Details: Z'-LYTE kinase assay JAK3

Molecule	Study Target	IC50
COc1cc(Nc2cc(NCc3ccccc3)c(C(N)=O)cn2)cc(OC)c1OC [Example 280]	JAK3 (Homo sapiens, UniProt P52333)	10 to 100 nM
COc1cccc(Nc2cc(NCc3ccccc3)c(C(N)=O)cn2)c1 [Example 11]	JAK3 (Homo sapiens, UniProt P52333)	10 to 100 nM

API: value(readout=IC50, system=JAK3 (Homo sapiens, UniProt P52333)) for record CS(=O)(=O)NCc1ccc(Nc2cc(NCc3cccc4ccsc34)c(C(N)=O)cn2)cc1 [Example 353] 1 to 10 nM

What value of IC50 on JAK3 (Homo sapiens, UniProt P52333) does CCC(=O)N(C)c1ccc(Nc2cc(NCc3cccc(F)n3)c(C(N)=O)cn2)cc1 [Example 488] have? 10 to 100 nM

---

Study Target: JAK2 (Homo sapiens)
Construct: 5 μl of catalytic domain recombinant Kinase enzyme+Tyr peptide substrate (Invitrogen, CA); purchased Invitrogen
Assay Details: Z'-LYTE kinase assay JAK2
Type: biochemical
Listed here: items and their measured IC50.

Solved entries:
Molecule	IC50
NC(=O)c1cnc(Nc2ccc(C(=O)N3CCCC3)cc2)cc1NCC1CCCC1 [Example 41]	0.1 to 1 µM
COc1ccc(Nc2cc(NCC3CCN(C(C)=O)CC3)c(C(N)=O)cn2)cc1 [Example 35]	> 1 µM
NC(=O)c1cnc(Nc2ccc(C3CCNCC3)cc2)cc1NCc1cccc(F)c1 [Example 70]	0.01 to 0.1 µM

I am curious: what IC50 value has been reported for NC(=O)c1cnc(Nc2ccc3ccncc3c2)cc1NCc1ccccc1 [Example 89] ? > 1 µM

Can you share its IC50? I mean this molecule: COc1ccc(Nc2cc(NCc3ccccc3)c(C(N)=O)cn2)cc1Cl [Example 332] > 1 µM

Recorded IC50 for NC(=O)c1cnc(Nc2ccc3cccnc3c2)cc1NCc1ccccc1 [Example 87] , please? > 1 µM

GET /values?readout=IC50&item= N#Cc1ccc(Nc2cc(NCc3ccccc3)c(C(N)=O)cn2)cc1C#N [Example 393] > 1 µM

Which IC50 value is on record for NC(=O)c1cnc(Nc2ccc(-c3c[nH]cn3)cc2)cc1NCc1ccccc1 [Example 276] ? 0.1 to 1 µM

Given the molecule NC(=O)c1cnc(Nc2ccc(C3CCN(S(=O)(=O)C4CC4)CC3)cc2)cc1NCc1ccccc1F [Example 113] , what is its reported IC50? > 1 µM

---

This section presents compounds with their documented IC50 values.
Study Target: JAK2 (Homo sapiens, UniProt O60674)
Construct: 5 μl of catalytic domain recombinant Kinase enzyme+Tyr peptide substrate (Invitrogen, CA); purchased Invitrogen
Sequence (O60674 849-1124 limits assumed): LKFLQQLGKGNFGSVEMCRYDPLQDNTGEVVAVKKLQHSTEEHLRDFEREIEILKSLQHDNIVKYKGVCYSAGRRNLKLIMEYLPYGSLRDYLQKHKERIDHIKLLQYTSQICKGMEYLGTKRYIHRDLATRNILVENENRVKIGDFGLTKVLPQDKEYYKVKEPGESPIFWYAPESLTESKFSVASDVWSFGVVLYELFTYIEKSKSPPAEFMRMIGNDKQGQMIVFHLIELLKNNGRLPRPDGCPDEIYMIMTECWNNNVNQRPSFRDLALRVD
Assay Details: Z'-LYTE kinase assay JAK2
Format: biochemical

CCC(=O)N1CCC(CNc2cc(Nc3ccc(C4CCOCC4)cc3)ncc2C(N)=O)CC1 > 1 µM
Cn1c(CNc2cc(Nc3ccc(C4CCOCC4)cc3)ncc2C(N)=O)nc2ccccc21 > 1 µM
CN(C)C(=O)C1CCN(c2ccc(Nc3cc(NCc4cccc5ccsc45)c(C(N)=O)cn3)cc2Cl)CC1 0.1 to 1 µM
COc1ccc(Nc2cc(Nc3ccc(C)cc3)c(C(N)=O)cn2)cc1 > 1 µM
CCC(=O)N1CC(c2ccc(Nc3cc(NCc4cccc5ccsc45)c(C(N)=O)cn3)cc2)C1 0.01 to 0.1 µM
CC(=O)NCc1ccc(Nc2cc(NCc3cccc4ccsc34)c(C(N)=O)cn2)cc1 0.01 to 0.1 µM
COCC(=O)N1CC(c2ccc(Nc3cc(NCc4ccccc4)c(C(N)=O)cn3)cc2)C1 0.1 to 1 µM
CN(C)C(=O)c1ccc(Nc2cc(NCc3ccccc3)c(C(N)=O)cn2)cc1 0.1 to 1 µM
CN(C)C(=O)c1ccc(Nc2cc(NCc3cccc4cc[nH]c34)c(C(N)=O)cn2)cc1 0.01 to 0.1 µM
NC(=O)c1cnc(Nc2ccc(N3CCOCC3)cc2)cc1NCc1ccccc1 0.1 to 1 µM

// query IC50 value for entry CC(=O)N1CCN(c2ccc(Nc3cc(NCc4ccccc4F)c(C(N)=O)cn3)cc2)CC1 0.01 to 0.1 µM

Look at this compound and give its reported IC50. COc1ccc(Nc2cc(NC[C@H]3CCCNC3)c(C(N)=O)cn2)cc1 > 1 µM

Consider the compound NC(=O)c1cnc(Nc2ccc(C3CCOCC3)cc2)cc1NCc1cn(CCN2CCCCC2)nn1 and give its measured IC50. > 1 µM

Quick one: IC50 of CC(=O)N1CCN(c2ccc(Nc3cc(NC4(c5ccccc5F)CC4)c(C(N)=O)cn3)cc2)CC1 ? 0.01 to 0.1 µM

Bench note: what IC50 did NC(=O)c1cnc(Nc2ccc(C3CCOCC3)cc2)cc1NCc1ccncn1 show? > 1 µM

What IC50 value was documented for this compound, CC(=O)N1CCC(CNc2cc(Nc3ccc(C(=O)N4CCOCC4)cc3)ncc2C(N)=O)CC1 ? > 1 µM

For the compound CS(=O)(=O)Cc1ccc(Nc2cc(NCc3cccc4[nH]ccc34)c(C(N)=O)cn2)cc1 , what IC50 is on record? 0.001 to 0.01 µM
